Origin of the recorded values: ChEMBL document CHEMBL1134340

Item-by-item account of HR
# Species on record: Rattus norvegicus
# Assay Info: Compound was tested for histamine release at a concentration of 300 ug/mL
# Assay type: functional
Your answer should be a plain number; it is taken to be in %.

For orientation, consider the following solved cases.
-- ask Determine its reported HR: `CC(=O)N[C@H](Cc1ccc2ccccc2c1)C(=O)N[C@H](Cc1ccc(Cl)cc1)C(=O)N[C@H](Cc1cccnc1)C(=O)N[C@@H](CO)C(=O)N[C@@H](Cc1ccc(NC(=O)[C@H]2CC(=O)NC(=O)N2)cc1)C(=O)N[C@H](Cc1ccc(NC(=O)[C@H]2CC(=O)NC(=O)N2)cc1)C(=O)N[C@@H](CC(C)C)C(=O)N[C@@H](CCCCNC(C)C)C(=O)N1CCC[C@H]1C(=O)N[C@H](C)C(N)=O`
-- reply 64

-- ask Determine its reported HR: `CC(=O)N[C@H](Cc1ccc2ccccc2c1)C(=O)N[C@H](Cc1ccc(Cl)cc1)C(=O)N[C@H](Cc1cccnc1)C(=O)N[C@@H](CO)C(=O)N[C@@H](Cc1ccc(NC(=O)[C@@H]2CC(=O)NC(=O)N2)cc1)C(=O)N[C@H](Cc1ccc(CNC(N)=O)cc1)C(=O)N[C@@H](CC(C)C)C(=O)N[C@@H](CCCCNC(C)C)C(=O)N1CCC[C@H]1C(=O)N[C@H](C)C(N)=O`
-- reply 64

Continue with the next molecule.
-- ask Determine its reported HR: `CNC(=O)NCc1ccc(C[C@@H](NC(=O)[C@H](Cc2ccc(NC(=O)[C@@H]3CC(=O)NC(=O)N3)cc2)NC(=O)[C@H](CO)NC(=O)[C@@H](Cc2cccnc2)NC(=O)[C@@H](Cc2ccc(Cl)cc2)NC(=O)[C@@H](Cc2ccc3ccccc3c2)NC(C)=O)C(=O)N[C@@H](CC(C)C)C(=O)N[C@@H](CCCCNC(C)C)C(=O)N2CCC[C@H]2C(=O)N[C@H](C)C(N)=O)cc1`
-- reply 67

----------
# Measurement Target: Gonadotropin-releasing hormone receptor (Homo sapiens, UniProt P30968)
# Sequence (P30968 whole entry): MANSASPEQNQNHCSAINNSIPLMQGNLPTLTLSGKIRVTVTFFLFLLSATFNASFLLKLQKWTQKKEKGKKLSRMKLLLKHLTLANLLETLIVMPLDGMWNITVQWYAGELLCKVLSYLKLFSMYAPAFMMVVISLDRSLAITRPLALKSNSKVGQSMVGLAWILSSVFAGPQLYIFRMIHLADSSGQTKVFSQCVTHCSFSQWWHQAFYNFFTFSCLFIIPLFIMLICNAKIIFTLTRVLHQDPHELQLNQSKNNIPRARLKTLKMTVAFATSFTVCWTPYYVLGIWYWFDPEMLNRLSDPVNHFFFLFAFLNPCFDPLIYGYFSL
# Assay Info: Antagonism of human GnHR receptor, determined in a reporter gene assay in HEK293 cells
# Format: functional, cell-based
Where a SMILES comes first, the peptide text is derived from it. [ ]: non-standard residue; d: D form. dPhe(4-NHCONH2) = NC(=O)Nc1ccc(C[C@@H](N)C(=O)O)cc1; Phe(4-NHCONH2) = NC(=O)Nc1ccc(C[C@H](N)C(=O)O)cc1; dPhe(4-Cl) = N[C@H](Cc1ccc(Cl)cc1)C(=O)O; d2Nal = N[C@H](Cc1ccc2ccccc2c1)C(=O)O; Lys(iPr) = CC(C)NCCCC[C@H](N)C(=O)O; d3Pal = N[C@H](Cc1cccnc1)C(=O)O
Measurement Type: IC50 (nM)
Your answer should be a plain number; it is taken to be in nM.

-- ask Determine its reported IC50: `CC(=O)N[C@H](Cc1ccc2ccccc2c1)C(=O)N[C@H](Cc1ccc(Cl)cc1)C(=O)N[C@H](Cc1cccnc1)C(=O)N[C@@H](CO)C(=O)N[C@@H](Cc1ccc(NC(=O)[C@@H]2CC(=O)NC(=O)N2)cc1)C(=O)N[C@H](Cc1ccc(CNC(N)=O)cc1)C(=O)N[C@@H](CC(C)C)C(=O)N[C@@H](CCCCNC(C)C)C(=O)N1CCC[C@H]1C(=O)N[C@H](C)C(N)=O`
-- reply 5.6

-- ask Determine its reported IC50: CC(=O)N[C@H](Cc1ccc2ccccc2c1)C(=O)N[C@H](Cc1ccc(Cl)cc1)C(=O)N[C@H](Cc1cccnc1)C(=O)N[C@@H](CO)C(=O)N[C@@H](Cc1ccc(NC(N)=O)cc1)C(=O)N[C@H](Cc1ccc(NC(N)=O)cc1)C(=O)N[C@@H](CC(C)C)C(=O)N[C@@H](CCCCNC(C)C)C(=O)N1CCC[C@H]1C(=O)N[C@H](C)C(N)=O (Ac-[d2Nal][dPhe(4-Cl)][d3Pal]S[Phe(4-NHCONH2)][dPhe(4-NHCONH2)]L[Lys(iPr)]P[dA]-NH2)
-- reply 2.8

Continue with the next compound.
-- ask Determine its reported IC50: `CC(=O)N[C@H](Cc1ccc2ccccc2c1)C(=O)N[C@H](Cc1ccc(Cl)cc1)C(=O)N[C@H](Cc1cccnc1)C(=O)N[C@@H](CO)C(=O)N[C@@H](Cc1ccc(NC(=O)[C@@H]2CC(=O)NC(=O)N2)cc1)C(=O)N[C@H](Cc1cccnc1)C(=O)N[C@@H](CC(C)C)C(=O)N[C@@H](CCCCNC(C)C)C(=O)N1CCC[C@H]1C(=O)N[C@H](C)C(N)=O`
-- reply 2.8
